# System: Fusobacterium necrophorum
# Experiment: Antibacterial activity against anaerobic Fusobacterium necrophorum 6054A
# Format: functional
Readout Kind: MIC (µg/mL)
Quick reminder: number only, in µg/mL, skip the unit.

CO/N=C(\C(=O)N[C@@H]1C(=O)N2C(C(=O)O)=C(Sc3ncc(S(C)(=O)=O)s3)CC[C@H]12)c1csc(N)n1	0.008

Now for a further compound.
Entry CO/N=C(\C(=O)N[C@@H]1C(=O)N2C(C(=O)O)=C(Sc3ncc(C#N)s3)CC[C@H]12)c1csc(N)n1 ; assay system Fusobacterium necrophorum; MIC recorded at 0.25

###

# Tested on: Bacteroides fragilis
# Experiment: Antibacterial activity against anaerobic Bacteroides fragilis 1936B
# Type: functional
Measured MIC, listed per entry.
Quick reminder: number only, in µg/mL, skip the unit.

Nc1nc(/C(=N/OCCF)C(=O)N[C@@H]2C(=O)N3C(C(=O)O)=C(Sc4ncc([N+](=O)[O-])s4)CC[C@H]23)cs1	4

Now for a further compound.
The compound CO[C@@]1(NC(=O)Cc2cccs2)C(=O)N2C(C(=O)O)=C(COC(N)=O)CS[C@@H]21 showed MIC equal to 8

###

Measured MIC, listed per entry.
# Tested on: Klebsiella pneumoniae
# Experiment: Antibacterial activity against aerobic Klebsiella pneumoniae X26
# Format: functional
Quick reminder: number only, in mg/L, skip the unit.

// solved cases for MIC follow
CO[C@@]1(NC(=O)C2SC(=C(C(N)=O)C(=O)O)S2)C(=O)N2C(C(=O)O)=C(CSc3nnnn3C)CS[C@@H]21 (some centres undefined) [CEFOTETAN]	0.125
CO/N=C(\C(=O)N[C@@H]1C(=O)N2C(C(=O)O)=C(Sc3ncc(C(F)(F)F)s3)CC[C@H]12)c1csc(N)n1	0.03
CO/N=C(\C(=O)N[C@@H]1C(=O)N2C(C(=O)O)=C(Sc3ncc(C#N)s3)CC[C@H]12)c1csc(N)n1	0.25

Now for a further compound.
The compound Nc1nc(/C(=N/OCCF)C(=O)N[C@@H]2C(=O)N3C(C(=O)O)=C(Sc4ncc([N+](=O)[O-])s4)CC[C@H]23)cs1 showed MIC equal to 0.008

###

# Tested on: Phocaeicola vulgatus
# Experiment: Antibacterial activity against anaerobic Bacteroides vulgatus 1211
# Type: functional
Decision: MIC beneath 8 µg/mL gives Satisfied; MIC meeting or exceeding 8 µg/mL gives Not satisfied.

CO/N=C(\C(=O)N[C@@H]1C(=O)N2C(C(=O)O)=C(Sc3ncc(S(C)(=O)=O)s3)CC[C@H]12)c1csc(N)n1	Not satisfied
CO/N=C(\C(=O)N[C@@H]1C(=O)N2C(C(=O)O)=C(Sc3ncc(C#N)s3)CC[C@H]12)c1csc(N)n1	Not satisfied
Nc1nc(/C(=N/OCCF)C(=O)N[C@@H]2C(=O)N3C(C(=O)O)=C(Sc4ncc([N+](=O)[O-])s4)CC[C@H]23)cs1	Satisfied

Exam item: I'd appreciate it if you could check whether CO[C@@]1(NC(=O)C2SC(=C(C(N)=O)C(=O)O)S2)C(=O)N2C(C(=O)O)=C(CSc3nnnn3C)CS[C@@H]21 (some centres not stated) [CEFOTETAN] has MIC smaller than 8 µg/mL.
Marked response: Satisfied

Exam item: I'd appreciate it if you could check whether CO/N=C(\C(=O)N[C@@H]1C(=O)N2C(C(=O)O)=C(Sc3ncc([N+](=O)[O-])s3)CC[C@H]12)c1csc(N)n1 has MIC smaller than 8 µg/mL.
Marked response: Satisfied

###

Measured MIC, listed per entry.
# Tested on: Klebsiella pneumoniae
# Experiment: Antibacterial activity against aerobic Klebsiella pneumoniae X26
# Type: functional
Quick reminder: number only, in µg/mL, skip the unit.

CO/N=C(\C(=O)N[C@@H]1C(=O)N2C(C(=O)O)=C(Sc3ncc([N+](=O)[O-])s3)CC[C@H]12)c1csc(N)n1	0.125
CO[C@@]1(NC(=O)Cc2cccs2)C(=O)N2C(C(=O)O)=C(COC(N)=O)CS[C@@H]21	1

Now for a further compound.
The compound CO/N=C(\C(=O)N[C@@H]1C(=O)N2C(C(=O)O)=C(Sc3ncc(S(C)(=O)=O)s3)CC[C@H]12)c1csc(N)n1 showed MIC equal to 0.03

###

Measured MIC, listed per entry.
# Test system: Bacteroides fragilis
# Experiment: Antibacterial activity against anaerobic Bacteroides fragilis 1936B
# Type: functional
Quick reminder: number only, in µg/mL, skip the unit.

// solved cases for MIC follow
CO/N=C(\C(=O)N[C@@H]1C(=O)N2C(C(=O)O)=C(Sc3ncc([N+](=O)[O-])s3)CC[C@H]12)c1csc(N)n1	4
CO/N=C(\C(=O)N[C@@H]1C(=O)N2C(C(=O)O)=C(Sc3ncc(C(F)(F)F)s3)CC[C@H]12)c1csc(N)n1	128

Now for a further compound.
Entry CO[C@@]1(NC(=O)C2SC(=C(C(N)=O)C(=O)O)S2)C(=O)N2C(C(=O)O)=C(CSc3nnnn3C)CS[C@@H]21 (some centres undefined) [CEFOTETAN] ; assay system Bacteroides fragilis; MIC recorded at 8

###

# Experiment: Area under plasma time curve determined in male rat
# Assay type: ADME, organism-based
Readout Kind: AUC (µg·h/mL)
Quick reminder: number only, in µg·h/mL, skip the unit.

The compound Nc1nc(/C(=N/OCCF)C(=O)N[C@@H]2C(=O)N3C(C(=O)O)=C(Sc4ncc([N+](=O)[O-])s4)CC[C@H]23)cs1 showed AUC equal to 11.1

###

# System: Escherichia coli
# Experiment: Antibacterial activity against aerobic Escherichia coli EC14
# Type: functional
Readout Kind: MIC (µg/mL)
Quick reminder: number only, in µg/mL, skip the unit.

The compound CO/N=C(\C(=O)N[C@@H]1C(=O)N2C(C(=O)O)=C(Sc3ncc(C#N)s3)CC[C@H]12)c1csc(N)n1 showed MIC equal to 0.5

The compound Nc1nc(/C(=N/OCCF)C(=O)N[C@@H]2C(=O)N3C(C(=O)O)=C(Sc4ncc([N+](=O)[O-])s4)CC[C@H]23)cs1 showed MIC equal to 0.5

The compound CO[C@@]1(NC(=O)Cc2cccs2)C(=O)N2C(C(=O)O)=C(COC(N)=O)CS[C@@H]21 [CEFOXITIN] showed MIC equal to 2

###

Measured MIC, listed per entry.
# Experiment: Antibacterial activity against anaerobic Peptococcus asaccharolyticus 1302
# Type: functional
# Test Parameters: Peptoniphilus asaccharolyticus
Quick reminder: number only, in µg/mL, skip the unit.

CO[C@@]1(NC(=O)C2SC(=C(C(N)=O)C(=O)O)S2)C(=O)N2C(C(=O)O)=C(CSc3nnnn3C)CS[C@@H]21 (some centres not stated)	1
CO/N=C(\C(=O)N[C@@H]1C(=O)N2C(C(=O)O)=C(Sc3ncc(C#N)s3)CC[C@H]12)c1csc(N)n1	0.25
CO/N=C(\C(=O)N[C@@H]1C(=O)N2C(C(=O)O)=C(Sc3ncc(S(C)(=O)=O)s3)CC[C@H]12)c1csc(N)n1	0.25

The molecule CO/N=C(\C(=O)N[C@@H]1C(=O)N2C(C(=O)O)=C(Sc3ncc(C(F)(F)F)s3)CC[C@H]12)c1csc(N)n1 showed MIC equal to 0.125

###

# Tested on: Fusobacterium necrophorum
# Experiment: Antibacterial activity against anaerobic Fusobacterium necrophorum 6054A
# Format: functional
Readout Kind: MIC

CO/N=C(\C(=O)N[C@@H]1C(=O)N2C(C(=O)O)=C(Sc3ncc(C(F)(F)F)s3)CC[C@H]12)c1csc(N)n1	0.25 µg/mL
Nc1nc(/C(=N/OCCF)C(=O)N[C@@H]2C(=O)N3C(C(=O)O)=C(Sc4ncc([N+](=O)[O-])s4)CC[C@H]23)cs1	≤ 0.5 µg/mL

Now for a further compound.
Entry CO/N=C(\C(=O)N[C@@H]1C(=O)N2C(C(=O)O)=C(Sc3ncc([N+](=O)[O-])s3)CC[C@H]12)c1csc(N)n1 ; assay system Fusobacterium necrophorum; MIC recorded at ≤ 0.5 µg/mL

###

# System: Escherichia coli
# Experiment: Antibacterial activity against aerobic Escherichia coli EC14
# Format: functional
Readout Kind: MIC (µg/mL)
Quick reminder: number only, in µg/mL, skip the unit.

// solved cases for MIC follow
CO/N=C(\C(=O)N[C@@H]1C(=O)N2C(C(=O)O)=C(Sc3ncc(C(F)(F)F)s3)CC[C@H]12)c1csc(N)n1	0.25
CO/N=C(\C(=O)N[C@@H]1C(=O)N2C(C(=O)O)=C(Sc3ncc([N+](=O)[O-])s3)CC[C@H]12)c1csc(N)n1	0.5
CO/N=C(\C(=O)N[C@@H]1C(=O)N2C(C(=O)O)=C(Sc3ncc(S(C)(=O)=O)s3)CC[C@H]12)c1csc(N)n1	0.06

Now for a further compound.
The compound CO[C@@]1(NC(=O)C2SC(=C(C(N)=O)C(=O)O)S2)C(=O)N2C(C(=O)O)=C(CSc3nnnn3C)CS[C@@H]21 (some centres undefined) showed MIC equal to 0.125

###

Measured MIC, listed per entry.
# Experiment: Antibacterial activity against anaerobic Peptococcus asaccharolyticus 1302
# Assay type: functional
# Test Parameters: Peptoniphilus asaccharolyticus

// solved cases for MIC follow
CO/N=C(\C(=O)N[C@@H]1C(=O)N2C(C(=O)O)=C(Sc3ncc([N+](=O)[O-])s3)CC[C@H]12)c1csc(N)n1	≤ 0.5 µg/mL
CO[C@@]1(NC(=O)Cc2cccs2)C(=O)N2C(C(=O)O)=C(COC(N)=O)CS[C@@H]21 [CEFOXITIN]	≤ 0.5 µg/mL

Now for a further compound.
The compound Nc1nc(/C(=N/OCCF)C(=O)N[C@@H]2C(=O)N3C(C(=O)O)=C(Sc4ncc([N+](=O)[O-])s4)CC[C@H]23)cs1 showed MIC equal to ≤ 0.5 µg/mL
